Measured koff, listed per entry.
Molecular target: T1, Murine OPG-Fc (mouse, UniProt O08712 22-401)
T1 sequence (looked up): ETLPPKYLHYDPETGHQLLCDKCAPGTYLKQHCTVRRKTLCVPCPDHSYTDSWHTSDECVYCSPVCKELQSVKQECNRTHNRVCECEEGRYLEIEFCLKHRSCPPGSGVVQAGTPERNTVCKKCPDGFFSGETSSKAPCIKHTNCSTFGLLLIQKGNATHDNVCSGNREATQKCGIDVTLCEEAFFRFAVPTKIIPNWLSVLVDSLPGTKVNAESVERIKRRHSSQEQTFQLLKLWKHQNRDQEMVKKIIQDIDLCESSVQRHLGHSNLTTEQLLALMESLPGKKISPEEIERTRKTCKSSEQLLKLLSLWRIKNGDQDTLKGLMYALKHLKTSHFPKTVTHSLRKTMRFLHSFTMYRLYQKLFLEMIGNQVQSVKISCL
Experiment: SPR
Report as a plain number; the unit s⁻¹ is understood.

Please review the following examples before continuing.
>  <binder>
RANKL_Q236P (ligand, mouse, UniProt O35235 160-316, looked up) EAQPFAHLTINAASIPSGSHKVTLSSWYHDRGWAKISNMTLSNGKLRVNQDGFYYLYANICFRHHETSGSVPTDYLPLMVYVVKTSIKIPSSHNLMKGGSTKNWSGNSEFHFYSINVGGFFKLRAGEEISIQVSNPSLLDPDQDATYFGAFKVQDID

>  <value unit>
s⁻¹

>  <koff>
0.00022

$$$$
>  <binder>
RANKL_Q236D (ligand, mouse, UniProt O35235 160-316, looked up) EAQPFAHLTINAASIPSGSHKVTLSSWYHDRGWAKISNMTLSNGKLRVNQDGFYYLYANICFRHHETSGSVPTDYLDLMVYVVKTSIKIPSSHNLMKGGSTKNWSGNSEFHFYSINVGGFFKLRAGEEISIQVSNPSLLDPDQDATYFGAFKVQDID

>  <value unit>
s⁻¹

>  <koff>
0.0007

$$$$

Turning now to a further record.
Enquiry: koff lookup needed for RANKL_Q236N (ligand, mouse, UniProt O35235 160-316, looked up) EAQPFAHLTINAASIPSGSHKVTLSSWYHDRGWAKISNMTLSNGKLRVNQDGFYYLYANICFRHHETSGSVPTDYLNLMVYVVKTSIKIPSSHNLMKGGSTKNWSGNSEFHFYSINVGGFFKLRAGEEISIQVSNPSLLDPDQDATYFGAFKVQDID , thanks.
Return: 0.00031
